- Test System: soluble human BACE (Homo sapiens, UniProt P56817)
- Construct: cells secreting human recombinant soluble BACE; concentrated conditioned medium, crude or purified
- Sequence (P56817 46-457 limits assumed): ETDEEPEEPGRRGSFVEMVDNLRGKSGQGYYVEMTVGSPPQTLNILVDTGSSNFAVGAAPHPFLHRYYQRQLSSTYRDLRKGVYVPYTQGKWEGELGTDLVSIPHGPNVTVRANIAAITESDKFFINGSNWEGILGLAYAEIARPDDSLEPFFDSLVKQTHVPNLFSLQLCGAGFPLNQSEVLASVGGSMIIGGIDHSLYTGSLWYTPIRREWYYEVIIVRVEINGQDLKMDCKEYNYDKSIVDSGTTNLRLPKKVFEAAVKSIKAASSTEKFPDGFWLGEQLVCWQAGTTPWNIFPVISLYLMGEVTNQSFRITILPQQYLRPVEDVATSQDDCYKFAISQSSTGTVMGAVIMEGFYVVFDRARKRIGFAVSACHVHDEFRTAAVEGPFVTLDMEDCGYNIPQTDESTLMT
- Assay Explanation: Inhibition of BACE: beta-secretase cleavage of synthetic biotinylated APP substrate, ELISA readout
- Condition Set: 3 μM substrate, 0.05M sodium acetate (pH 4.5), 2% DMSO, 1 hour at 37° C., ELISA absorbance at 450 nm
Value Type: IC50 (µM)
Could you give me the number in µM? Just the number is fine.

Prompt line: Please give measured IC50 of the following entry: CC(C)Oc1cccc(CN2CC[C@]3(CNS(=O)(=O)N3c3cccc(F)c3)C[C@@H]2C)n1 [Example 83]
Response line: 102

***
Prompt line: Give the measured IC50 for Cc1ccncc1-c1cccc(CN2CC[C@]3(CNS(=O)(=O)N3c3cccc(F)c3)C[C@@H]2C)c1 [Example 17]
Response line: 1.51
